Entry source: patent US10071076B2

# MEASUREMENT TARGET: recombinant thioesterase TE1 (recombinant FASN-TE) (Homo sapiens, UniProt P49327)
# Sequence (P49327 2207-2511 limits assumed): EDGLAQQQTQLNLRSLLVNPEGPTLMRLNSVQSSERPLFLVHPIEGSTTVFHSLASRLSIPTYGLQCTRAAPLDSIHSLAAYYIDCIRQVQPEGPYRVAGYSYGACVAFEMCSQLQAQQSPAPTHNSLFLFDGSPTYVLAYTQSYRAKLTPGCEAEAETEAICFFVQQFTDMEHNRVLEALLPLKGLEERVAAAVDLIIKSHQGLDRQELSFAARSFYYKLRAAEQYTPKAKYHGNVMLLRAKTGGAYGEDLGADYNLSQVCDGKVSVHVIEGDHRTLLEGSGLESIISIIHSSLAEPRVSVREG
# EXPERIMENTAL PROTOCOL: Recombinant thioesterase inhibition assay (TE1)
# Type: biochemical
# CONDITION SET: 10 μM compound; 30 min pre-incubation at 37° C.; 4-MUH substrate
OBSERVABLE: inhibition at 10 µM (%)

{"columns": ["SMILES STRING", "MEASUREMENT TARGET", "inhibition at 10 µM / %"],
 "data": [
  ["CCOC(=O)c1n[nH]c2c1C(=O)C(SCCC(=O)OC)=CC2=O", "recombinant thioesterase TE1 (recombinant FASN-TE) (Homo sapiens, UniProt P49327)", 62],
  ["CCOC(=O)c1n[nH]c2c1C(=O)C(SCc1ccc(C(F)(F)F)cc1)=CC2=O", "recombinant thioesterase TE1 (recombinant FASN-TE) (Homo sapiens, UniProt P49327)", 67.9],
  ["CCOC(=O)c1n[nH]c2c1C(=O)C(SCCOCCOC)=CC2=O", "recombinant thioesterase TE1 (recombinant FASN-TE) (Homo sapiens, UniProt P49327)", 50.2],
  ["CCOC(=O)c1n[nH]c2c1C(=O)C(Sc1ccccc1)=CC2=O", "recombinant thioesterase TE1 (recombinant FASN-TE) (Homo sapiens, UniProt P49327)", 79.7],
  ["CCOC(=O)c1n[nH]c2c1C(=O)C(SC1CCCC1)=CC2=O", "recombinant thioesterase TE1 (recombinant FASN-TE) (Homo sapiens, UniProt P49327)", 52.2],
  ["CCOC(=O)c1n[nH]c2c1C(=O)C(SCc1ccc(F)cc1F)=CC2=O", "recombinant thioesterase TE1 (recombinant FASN-TE) (Homo sapiens, UniProt P49327)", 66],
  ["O=C(Nc1ccccc1)c1n[nH]c2c1C(=O)C(SCc1ccc(C(F)(F)F)cc1)=CC2=O", "recombinant thioesterase TE1 (recombinant FASN-TE) (Homo sapiens, UniProt P49327)", 92.6],
  ["CCOC(=O)c1n[nH]c2c1C(=O)C(Sc1ccc(-c3ccccc3)cc1)=CC2=O", "recombinant thioesterase TE1 (recombinant FASN-TE) (Homo sapiens, UniProt P49327)", 70.5],
  ["CCOC(=O)c1n[nH]c2c1C(=O)C(SCc1cccc(F)c1)=CC2=O", "recombinant thioesterase TE1 (recombinant FASN-TE) (Homo sapiens, UniProt P49327)", 73.6],
  ["CCCCCCCSC1=CC(=O)c2[nH]nc(C(=O)OCC)c2C1=O", "recombinant thioesterase TE1 (recombinant FASN-TE) (Homo sapiens, UniProt P49327)", 66.2],
  ["CCOC(=O)c1n[nH]c2c1C(=O)C(Sc1cccc(OC)c1)=CC2=O", "recombinant thioesterase TE1 (recombinant FASN-TE) (Homo sapiens, UniProt P49327)", 81.6],
  ["C=C1C=C(S)C(=O)c2c(C(=O)OCC)n[nH]c21", "recombinant thioesterase TE1 (recombinant FASN-TE) (Homo sapiens, UniProt P49327)", 69.3],
  ["CCOC(=O)c1n[nH]c2c1C(=O)C(SCc1ccc(Cl)cc1)=CC2=O", "recombinant thioesterase TE1 (recombinant FASN-TE) (Homo sapiens, UniProt P49327)", 74.8],
  ["CCOC(=O)c1n[nH]c2c1C(=O)C(SCC(=O)OC)=CC2=O", "recombinant thioesterase TE1 (recombinant FASN-TE) (Homo sapiens, UniProt P49327)", 69.5]
]}
